Reference for the values: patent US20250163127A1

- target under test: CD28 (human) (UniProt P10747)
- protocol: flow cytometry, Jurkat cells (CD28)
Readings of MFI at 33.3 nM for the listed binders
Write the number in MFI without appending the unit.

// solved cases for MFI at 33.3 nM follow
INSERT INTO measurements (binder, test_result) VALUES
  ('CD80 variant H18Y/A26E/Q33L/E35D/M47L/L85Q IgV-Fc (Fc fusion) VIHVTKEVKEVATLSCGYNVSVEELEQTRIYWLKDKKMVLTMMSGDLNIWPEYKNRTIFDITNNLSIVILALRPSDEGTYECVVQKYEKDAFKREHLAEVT', 272),
  ('CD80 variant Q33L/E35D/M47I IgV-Fc (Fc fusion) VIHVTKEVKEVATLSCGHNVSVEELAQTRIYWLKDKKMVLTMMSGDINIWPEYKNRTIFDITNNLSIVILALRPSDEGTYECVVLKYEKDAFKREHLAEVT', 282),
  ('CD80 variant Q33L/E35D/M43I/L85Q/R94W IgV-Fc (Fc fusion) VIHVTKEVKEVATLSCGHNVSVEELAQTRIYWLKDKKMVLTMISGDMNIWPEYKNRTIFDITNNLSIVILALRPSDEGTYECVVQKYEKDAFKWEHLAEVT', 272),
  ('CD80 variant H18Y/V20A/Q33L/E35D/M47V/Y53F IgV-Fc (Fc fusion) VIHVTKEVKEVATLSCGYNASVEELAQTRIYWLKDKKMVLTMMSGDVNIWPEFKNRTIFDITNNLSIVILALRPSDEGTYECVVLKYEKDAFKREHLAEVT', 260),
  ('CD80 variant Q27H/Q33L/E35D/M47V/N55D/L85Q/K89N IgV-Fc (Fc fusion) VIHVTKEVKEVATLSCGHNVSVEELAHTRIYWLKDKKMVLTMMSGDVNIWPEYKDRTIFDITNNLSIVILALRPSDEGTYECVVQKYENDAFKREHLAEVT', 269);

Identify the reported MFI at 33.3 nM for the following entry. variant CD80 Q27H/E35D/M47I/L85Q/D90G (Fc fusion) VIHVTKEVKEVATLSCGHNVSVEELAHTRIYWQKDKKMVLTMMSGDINIWPEYKNRTIFDITNNLSIVILALRPSDEGTYECVVQKYEKGAFKREHLAEVT
3510

Identify the reported MFI at 33.3 nM for the following entry. CD80 variant Q33L/E35D/M47L/A71G/F92S IgV-Fc (Fc fusion) VIHVTKEVKEVATLSCGHNVSVEELAQTRIYWLKDKKMVLTMMSGDLNIWPEYKNRTIFDITNNLSIVILGLRPSDEGTYECVVLKYEKDASKREHLAEVT
366

Identify the reported MFI at 33.3 nM for the following entry. variant CD80 V22A/E35D/M47I/Y87N (Fc fusion) VIHVTKEVKEVATLSCGHNVSAEELAQTRIYWQKDKKMVLTMMSGDINIWPEYKNRTIFDITNNLSIVILALRPSDEGTYECVVLKNEKDAFKREHLAEVT
15300

Identify the reported MFI at 33.3 nM for the following entry. CD80 variant Q33L/E35D/M47I/L85Q IgV-Fc (Fc fusion) VIHVTKEVKEVATLSCGHNVSVEELAQTRIYWLKDKKMVLTMMSGDINIWPEYKNRTIFDITNNLSIVILALRPSDEGTYECVVQKYEKDAFKREHLAEVT
287

Identify the reported MFI at 33.3 nM for the following entry. CD80 variant Q33L/E35D/T41S/M43I IgV-Fc (Fc fusion) VIHVTKEVKEVATLSCGHNVSVEELAQTRIYWLKDKKMVLSMISGDMNIWPEYKNRTIFDITNNLSIVILALRPSDEGTYECVVLKYEKDAFKREHLAEVT
433

Identify the reported MFI at 33.3 nM for the following entry. CD80 variant Q33L/E35D/M47I/T62N/L85Q IgV-Fc (Fc fusion) VIHVTKEVKEVATLSCGHNVSVEELAQTRIYWLKDKKMVLTMMSGDINIWPEYKNRTIFDINNNLSIVILALRPSDEGTYECVVQKYEKDAFKREHLAEVT
284
